test system: HCT-15 colon; experiment: NCI tumour cell line growth inhibition, 48 h; in the data active = GI50 below about 0.43 µM; inactive = the rest
Outcome field: choose from 1 (yes) (active), 0 (no) (inactive)

Q: GET /call?item= `COc1cc(Cn2c(-c3ccccc3)cc3c2-c2oncc2CC3)cc(OC)c1OC` returns the recorded outcome of this test.
Ans: 0 (no)

Q: GET /call?item= `CCCNC(=S)N/N=C(\C)c1ccccn1` returns the recorded outcome of this test.
Ans: 1 (yes)

Q: GET /call?item= `COc1cc(C(=O)O[C@H](C(N)=O)[C@]2(C)CO2)c2ccccc2c1` returns the recorded outcome of this test.
Ans: 0 (no)

Q: GET /call?item= `C[C@]12CC[C@@H]3c4ccc(O)cc4CC[C@H]3[C@@H]1CC[C@@H]2NS(=O)(=O)c1ccc(C(F)(F)F)cc1` returns the recorded outcome of this test.
Ans: 0 (no)

Q: GET /call?item= `Cc1[nH]c(N=Nc2ccccc2)nc1N=Nc1ccccc1` returns the recorded outcome of this test.
Ans: 0 (no)

Q: GET /call?item= `Nc1nccc(-c2c(-c3ccc(F)cc3)ncn2CCCN2CCOCC2)n1` returns the recorded outcome of this test.
Ans: 0 (no)

Q: GET /call?item= `COc1ccc(C(=O)/C=C/c2cccnc2Nc2cc(OC)c(OC)c(OC)c2)cc1` returns the recorded outcome of this test.
Ans: 0 (no)

Q: GET /call?item= CCCCCCCCCCC(O)C1CCC(C2CCC(C(O)CCCCC(O)CCCCCC(O)CC3=CC(C)OC3=O)O2)O1 (centres undefined) returns the recorded outcome of this test.
Ans: 0 (no)

Q: GET /call?item= `CC[C@H](C)[C@H](NC(=O)[C@H]1CCCCN1C)C(=O)N(C)[C@H](CCc1nc(C(=O)N[C@@H](Cc2ccccc2)C[C@H](C)C(=O)OC)cs1)C(C)C` returns the recorded outcome of this test.
Ans: 0 (no)
